- Test system: LOX IMVI melanoma
- ASSAY DETAILS: NCI tumour cell line growth inhibition, 48 h
MEASURED ATTRIBUTE: log10 of TGI (log10 of the value in µM)
Heads up: the numbers are on a log10 scale; they represent TGI in µM.

MOL SMILES	log10 of TGI
Nc1cc(CO)cc(Nc2c3ccccc3nc3ccccc23)c1	1.50
CN1CCN(C2=C(Cl)C(=O)c3ccccc3C2=O)CC1	0.48
CN(C)CCCNc1ccnc2c([N+](=O)[O-])cccc12	1.59

Name the recorded log10 of TGI for OCc1c(-c2cccs2)oc(-c2cccs2)c1CO . 1.72

Name the recorded log10 of TGI for O=C(O)/C=C/c1c2ccc(=O)c(O)c-2oc2c(O)c(O)ccc12 . 1.79

---

- Test system: XF 498 CNS
- ASSAY DETAILS: NCI tumour cell line growth inhibition, 48 h
MEASURED ATTRIBUTE: TGI

COMPOUND	ASSAY RESULT
Cn1c(=O)nc2n(-c3ccc(Br)cc3)c3ccccc3nc-2c1=O	25 µM

Below: the item to evaluate.
Name the recorded TGI for CCOC(=O)c1ccc(N=Cc2ccc(N(CCC#N)S(=O)(=O)c3ccccc3)cc2C)cc1 . > 100 µM

---

- Tested on: A498 renal
- ASSAY DETAILS: NCI tumour cell line growth inhibition, 48 h; in the data active means GI50 below about 0.43 µM; inactive means the rest
Result category, one only: yes (1) = active, no (0) = inactive

COMPOUND	SYSTEM UNDER TEST	CLASS ASSIGNMENT
COc1ccc(CCN2CCCn3c2nc2ccccc2c3=O)cc1	A498 renal	yes (1)
Nc1[nH]nc(Nc2ccccc2)c1-c1nc2ccccc2s1	A498 renal	no (0)
COc1ccc(-c2nc(NC(=O)CS(=O)(=O)c3ccc(F)cc3)sc2C)cc1	A498 renal	no (0)
O=C(c1ccc(Cl)cc1Cl)N1CCN(C(=O)c2ccc(Cl)cc2Cl)C1=S	A498 renal	no (0)
CCN(Cc1ccc(Cl)c(Cl)c1)c1ccc2nc(N)nc(N)c2c1C	A498 renal	no (0)

Call for entry COC(=O)CNC(=O)C(=O)c1c(O)c(O)c(C(C)C)c2cc(C)c(-c3c(C)cc4c(C(C)C)c(O)c(O)c(C(=O)C(=O)NCC(=O)OC)c4c3O)c(O)c12 : no (0)

Call for entry O=C(CSSCC(=O)c1ccc(Cl)cc1)c1ccc(Cl)cc1 : no (0)

Call for entry NC(CSC(c1ccccc1)(c1ccccc1)c1ccccc1)C(=O)O (stereo unspecified) : no (0)

Call for entry OCc1c(-c2cccs2)oc(-c2cccs2)c1CO : no (0)

Call for entry COc1cc(C[C@H]2COC(=O)[C@]2(O)Cc2ccc(OCc3ccccc3)c(OC)c2)ccc1OCc1ccccc1 : no (0)

Call for entry CCN1C(=O)N(CC)C2C1NN=c1s/c(=C3\C(=O)Nc4ccccc43)c(=O)n12 (stereo unspecified) : yes (1)

---

- Tested on: SF-539 CNS
- ASSAY DETAILS: NCI tumour cell line growth inhibition, 48 h
MEASURED ATTRIBUTE: TGI (µM)
Reply with just the number (in µM).

MOLECULE	MEASURED ATTRIBUTE	UNIT DESCRIPTOR	ASSAY RESULT
C[C@H]1C[C@@H](n2c(Nc3ccc(OC(F)(F)F)cc3)nc3cc(CCC(=O)O)ccc32)CC(C)(C)C1	TGI	µM	37.7
COc1cc(C[C@@]2(C)[C@@H]3CCC[C@H](CO)[C@@]3(C)CC[C@@H]2C)c(Cl)c(OC)c1	TGI	µM	29.4
O=C(O)CCCN1C(=O)/C(=C/C(Cl)=C/c2ccccc2)SC1=S	TGI	µM	4.85
O=[N+]([O-])c1ccc(Sc2cccc[n+]2[O-])c2nonc12	TGI	µM	54.3
O=C(O)c1cccc([As]=[As]c2cccc(C(=O)O)c2)c1 (stereo unspecified)	TGI	µM	39.1
C(=N\NC1=NCCCCN1)/c1ccc2ccccc2c1	TGI	µM	51.3
COc1ccc2c(c1)/C(=C\c1c(Cl)nc3n1CCS3)C(=O)N2	TGI	µM	24.9
O=C(CSSCC(=O)c1ccc(Cl)cc1)c1ccc(Cl)cc1	TGI	µM	23.8

Below: the item to evaluate.
Name the recorded TGI for O=C(c1ccccc1)c1nc2c(Cl)ccc(Cl)c2cc1C(Br)Br . 1.76
